# Tested on: P388 leukemia ip, CD2F1 mice, survival T/C
# protocol_text: NCI In Vivo Anticancer Drug Screen. Data for tumor model P388 Leukemia (intraperitoneal) in CD2F1 (CDF1) mice
# recorded_conditions: endpoint: median survival time; dose: 100.0 mg/kg/injection; schedule: Q04DX002 (ip); vehicle: saline with Tween-80; higher = longer survival
Inconclusive results and toxic doses are left out.
T/C listing for selected compounds.
property_label: T/C

• CSC(/C=C1\C=CN(Cc2ccccc2)c2ccccc21)=N\S(=O)(=O)c1ccc(C)cc1 = 97 % of control
• COc1ccc(C2(c3ccc(OC)cc3)N=C(n3nc(C)cc3C)NC2=O)cc1 = 98 % of control
• CN(C)C1(c2ccc3ccccc3c2)CS(=O)(=O)C1 = 100 % of control
• Cc1cc2nc3ccccc3[nH]c2c2ccc(=O)cc12 = 99 % of control
• O=c1[nH]c2n[nH]c(=S)n2c2c1CCCC2 = 97 % of control
• CC12C=CC(C(C(=O)O)C1=O)C2(C)C (stereo not given) = 107 % of control
• Cc1ccc(NCC2CCCN3CCCCC23)c2c(=O)c3cc(O)ccc3sc12 (stereo not given) = 97 % of control
• CCOC(=O)C(C(=O)OCC)C1(O)C2CCCC21 (stereo not given) = 101 % of control
• O=c1[nH]c(-c2ccc(O)cc2)cc2ccccc12 = 99 % of control
• c1ccc2c(c1)-c1cc3ccc4ccccc4c3nc1C1OC21 (stereo not given) = 100 % of control

---

# System: P388 leukemia ip, CD2F1 mice, survival T/C
# protocol_text: NCI In Vivo Anticancer Drug Screen. Data for tumor model P388 Leukemia (intraperitoneal) in CD2F1 (CDF1) mice
# recorded_conditions: endpoint: median survival time; dose: 25.0 mg/kg/injection; schedule: Q01DX009 (ip); vehicle: water; higher = longer survival
# Method: The antitumor activity of compounds was measured in mice bearing transplantable tumors. Survival or tumor size were measured and the results are expressed as the measurement made in the treated group (T) divided by the measurement made in the vehicle treated control group (C). The tumor model used in this assay is P388 Leukemia (intraperitoneal) in CD2F1 (CDF1) mice
Inconclusive results and toxic doses are left out.
property_label: T/C

- NC(=O)NC(C/[N+]([O-])=N/O)C(=O)O (stereo not given): 96 % of control
- CC(=O)ON1C(=O)C2C3C=CC(O3)C2C1=O (stereo not given): 102 % of control
- CCCCN=[N+]=[N-]: 98 % of control
- CCOC(=O)c1nc(C)nc(N)c1C: 91 % of control
- O=C(CCNC(=O)OCc1ccccc1)NC(CSCc1ccccc1)C(=O)O (stereo not given): 95 % of control

---

# Tested on: P388 leukemia ip, CD2F1 mice, survival T/C
# protocol_text: NCI In Vivo Anticancer Drug Screen. Data for tumor model P388 Leukemia (intraperitoneal) in CD2F1 (CDF1) mice
# recorded_conditions: endpoint: median survival time; dose: 400.0 mg/kg/injection; schedule: Q04DX003 (ip); vehicle: saline; higher = longer survival
Toxic doses and inconclusive results are not listed.
T/C listing for selected molecules.
property_label: T/C

* COc1ccc(C2C3CCCC(C3=O)C(c3ccc(OC)cc3)N2C)cc1 (stereo not given) | 96 % of control
* CCN(CC)SC(=S)SN(CC)CC | 104 % of control
* CN1CCC/C1=C/C(=O)c1ccc(Cl)cc1 | 92 % of control
* Cn1nnnc1CC(=O)O | 103 % of control
* CC(C)(C)NC(=O)C(F)(F)C(F)(F)C(F)(F)C(=O)NC(C)(C)C | 99 % of control
* Cc1nccc2nnc(C)n12 | 95 % of control
* CC1NS(=O)(=O)c2ccccc2C1=O (stereo not given) | 108 % of control
* Cc1ccc(S(=O)(=O)/N=C2\C=CC=C\C2=C2\Sc3ccccc3N2C)cc1 | 95 % of control
* Cc1cccc(C)c1NC=O | 106 % of control
* CS(=O)(=O)OCCCCCCCCCCCC1C=CCC1 (stereo not given) | 94 % of control
* CC(=O)/C=C1\C(=O)OCC1(C)C | 111 % of control
* COC(=O)/C(C#N)=C1\C(=O)OCC1(C)C | 98 % of control
* OC1COCC2N3C(=NN12)Sc1ccccc13 (stereo not given) | 98 % of control
* C=C(c1ccccc1)c1ccccc1-c1ccccc1C(=C)c1ccccc1 | 98 % of control
* O=C(Cc1ccccn1)c1cccnc1 | 100 % of control

---

# Test system: P388 leukemia ip, CD2F1 mice, survival T/C
# protocol_text: NCI In Vivo Anticancer Drug Screen. Data for tumor model P388 Leukemia (intraperitoneal) in CD2F1 (CDF1) mice
# recorded_conditions: endpoint: median survival time; dose: 25.0 mg/kg/injection; schedule: Q01DX009 (ip); vehicle: saline with Tween-80; higher = longer survival
Inconclusive results and toxic doses are left out.
property_label: T/C

- CN(C)C(=O)c1ccc([N+](=O)[O-])cc1: 119 % of control
- O=C(O)c1nc2ccccc2c(=O)[nH]1: 95 % of control
- COc1cc[n+](CCc2c[nH]c3ccccc23)cc1: 104 % of control
- CCCCCC#CC(=O)OC: 109 % of control
- O=S1(=O)CN2C=CC=CC2=N1: 105 % of control
- Cc1cc2nc(N)[nH]c2cc1C: 105 % of control
- OC(CC1CCCCN1)c1ccccc1 (centres undefined): 101 % of control
- COCCCn1c(C(Cl)(Cl)Cl)nn2c(=O)c3ccccc3nc2c1=O: 100 % of control
- CCCCCCCCCCCCCCCC[N+](C)(C)CCN=[N+]=[N-]: 107 % of control
- COP(=S)(OC)SCSc1ccc(Cl)cc1: 91 % of control
- CCN(CC)c1cc(Cl)ccc1Cl: 104 % of control
- Cc1ccc(N(O)C(C)(C)C)cc1: 97 % of control
- O=C1SC(c2ccccc2)(c2ccccc2)c2cscc21: 92 % of control
- CN(C)c1ccc(-c2c3ccccc3nc3ccccc23)cc1: 90 % of control
- CN(N=O)C(N)=O: 95 % of control
- O=C1CCCSc2ccccc21: 100 % of control
- O=[N+]([O-])c1cccc2c1CCCC2: 109 % of control
- CCCCOC1OCN(C(C)(C)C)CC1(C)C (centres undefined): 101 % of control
- O=[N+]([O-])c1ccc(S(=O)(=O)C/C=C/CCl)c([N+](=O)[O-])c1: 90 % of control
- CCOCN(COCC)c1ccccn1: 100 % of control
- Fc1ccc(OCCC(Cn2ccnc2)c2ccc(Cl)cc2Cl)cc1 (centres undefined): 106 % of control
- O=C(O)c1cc(-c2ccccc2)[nH]c1-c1ccccc1: 106 % of control
- CC1(O)c2ccccc2[P+](C)(c2ccccc2)c2ccccc21 (centres undefined): 109 % of control
- O=[N+]([O-])c1cccc(SNc2cccc(Cl)c2)c1: 100 % of control
- COC(=O)C(Cl)c1ccc2c(c1)OCO2 (centres undefined): 100 % of control
- O=C1C=C(Sc2ccc3ccccc3c2)C(=O)c2ccccc21: 95 % of control
- N#CC(=C1N=c2ccccc2=N1)c1[nH]c(O)c2ccccc12: 94 % of control
- Cc1ccccc1C(=O)Nc1ccccc1-c1ccccc1: 100 % of control
- COc1ccc(Cc2nncc3ccccc23)cc1OC: 105 % of control

---

T/C listing for selected compounds.
# System: P388 leukemia ip, CD2F1 mice, survival T/C
# protocol_text: NCI In Vivo Anticancer Drug Screen. Data for tumor model P388 Leukemia (intraperitoneal) in CD2F1 (CDF1) mice
# recorded_conditions: endpoint: median survival time; dose: 25.0 mg/kg/injection; schedule: Q01DX001 (ip); vehicle: saline with Tween-80; higher = longer survival
Inconclusive results and toxic doses are left out.
property_label: T/C

- O=S(=O)(/N=C1\c2ccccc2/C(=N\S(=O)(=O)c2ccccc2)C2C3C=CC(C3)C12)c1ccccc1 (stereo not drawn): 115 % of control
- CC1(CN2CCCC2)CCC(NC(=O)C(c2ccccc2)c2ccccc2)C(C)(C)O1 (stereo not drawn): 107 % of control
- O=C1C(CO)NC(=S)N1c1ccccc1 (stereo not drawn): 102 % of control
- O=C1Cn2c(cc(=O)c3ccccc32)O1: 109 % of control
- C=C1C2(CN)CCC(C2)C1(C)C (stereo not drawn): 101 % of control
- Cn1c2ccc([N+](=O)[O-])cc2c(=O)c2c(O)cc3c(c21)C=CC(C)(C)O3: 97 % of control
- Nc1nc(N)c(Nc2ccc(Cl)cc2)c(Cl)n1: 102 % of control
- Cc1ccc(NCCCC2CCCN3CCCCC23)c2c(=O)c3cc(O)ccc3sc12 (stereo not drawn): 99 % of control
